human somatostatin receptor subtype sst5 (Homo sapiens, UniProt P35346): recorded pKi for assorted molecules
Sequence (P35346 whole entry): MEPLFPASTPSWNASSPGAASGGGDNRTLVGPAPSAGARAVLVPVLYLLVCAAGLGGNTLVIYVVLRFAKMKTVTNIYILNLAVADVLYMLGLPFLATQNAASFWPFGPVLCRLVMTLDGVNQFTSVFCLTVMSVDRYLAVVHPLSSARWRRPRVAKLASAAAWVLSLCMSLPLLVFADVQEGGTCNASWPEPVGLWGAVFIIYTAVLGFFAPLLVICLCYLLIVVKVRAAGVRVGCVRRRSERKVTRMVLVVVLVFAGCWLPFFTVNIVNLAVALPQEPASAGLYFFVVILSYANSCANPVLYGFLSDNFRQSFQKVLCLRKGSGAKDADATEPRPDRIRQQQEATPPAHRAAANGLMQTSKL
pKi: −log10 of the molar value.

Provide pKi, tested on human somatostatin receptor subtype sst5 (Homo sapiens, UniProt P35346), for Cc1ccc(S(=O)(=O)N[C@@H](CCN)CNCc2ccccc2)c2ccccc12 [compound 2] . < 5.52

Give reported pKi for Cc1ccc(S(=O)(=O)N[C@@H](CCCNC(C)C)COc2ccccc2)c2ccccc12 [compound 33] (human somatostatin receptor subtype sst5 (Homo sapiens, UniProt P35346)) < 5.52

----------
target: human somatostatin receptor subtype sst2 (Homo sapiens)
Sequence (P30874 whole entry): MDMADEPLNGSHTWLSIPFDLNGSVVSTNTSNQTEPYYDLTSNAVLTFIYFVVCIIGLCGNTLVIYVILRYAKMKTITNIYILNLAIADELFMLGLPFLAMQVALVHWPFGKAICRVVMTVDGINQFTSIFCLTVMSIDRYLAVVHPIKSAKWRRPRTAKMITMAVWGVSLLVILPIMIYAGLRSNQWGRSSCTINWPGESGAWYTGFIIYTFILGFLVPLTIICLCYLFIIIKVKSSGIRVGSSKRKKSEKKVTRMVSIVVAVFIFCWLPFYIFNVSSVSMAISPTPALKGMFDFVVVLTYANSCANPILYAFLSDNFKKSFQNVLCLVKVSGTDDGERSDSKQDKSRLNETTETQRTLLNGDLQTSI
measurement-label: Ki

State recorded Ki with human somatostatin receptor subtype sst2 (Homo sapiens), entry Cc1ccc(S(=O)(=O)N[C@@H](CCCNC(C)C)COc2ccccc2)c2ccccc12 [compound 33] , no comment. > 10 µM
